Entries and their half-life at 0.4 mM values follow.
Test: Metabolic stability in pooled human liver microsomes
Details: human, pooled liver microsomes

Below, each entry is followed by its recorded half-life at 0.4 mM result.
compound="C[C@H]1[C@H](N2C=CS(=O)(=O)CC2)O[C@@H]2O[C@@]3(C)CC[C@H]4[C@H](C)CC[C@@H]1[C@@]24OO3 [M1 12]" result="> 150 min"
compound="C[C@H]1[C@H](N2CCS(=O)(=O)CC2)O[C@@H]2O[C@@]3(C)CC[C@H]4[C@H](C)CC[C@@H]1[C@@]24OO3 [Artemisone 6, artemisone]" result="< 10 min"
compound="C[C@H]1[C@H](NS(N)(=O)=O)O[C@@H]2O[C@@]3(C)CC[C@H]4[C@H](C)CC[C@@H]1[C@@]24OO3 [Sulfamide 7]" result="> 150 min"

Let's switch to this compound now.
I would be grateful if you could share the reported half-life at 0.4 mM for C[C@H]1[C@@H](O)O[C@@H]2O[C@@]3(C)CC[C@H]4[C@H](C)CC[C@@H]1[C@@]24OO3 [DHA 2, dihydroartemisinin] . 51.7 min

###

Experiment: Metabolic stability in pooled human liver microsomes
Conditions: human, pooled liver microsomes
Measured half-life at 0.4 mM, listed per entry.

Below, each entry is followed by its recorded half-life at 0.4 mM result.
compound=C[C@H]1[C@H](N2CCN(C(=O)Nc3ccc(F)cc3)CC2)O[C@@H]2O[C@@]3(C)CC[C@H]4[C@H](C)CC[C@@H]1[C@@]24OO3 result="< 10 min"
compound="C[C@H]1[C@H](N2CCSCC2)O[C@@H]2O[C@@]3(C)CC[C@H]4[C@H](C)CC[C@@H]1[C@@]24OO3 [Artemiside 5, artemiside]" result="< 10 min"

Now look at this one.
Query (compound): C[C@@H]1CC[C@H]2[C@@H](C)C(=O)N[C@@H]3O[C@@]4(C)CC[C@@H]1[C@]32OO4 ; field requested: half-life at 0.4 mM 60 min

###

Assay: Metabolic stability in mouse liver microsomes
Assay type: in vitro ADME
Parameters: dose or concentration left out as unconfirmed
Details: calculated, read-out: Intrinsic liver clearance rate CLint Mouse
result type: CLint scaled (mL/min/kg)
Field: numeric (mL/min/kg). Do not append units.

compound=CO[C@H]1O[C@@H]2O[C@@]3(C)CC[C@H]4[C@H](C)CC[C@@H]([C@H]1C)[C@@]24OO3 result_type="CLint scaled" result_number=393

Item under review: C[C@H]1[C@H](NS(N)(=O)=O)O[C@@H]2O[C@@]3(C)CC[C@H]4[C@H](C)CC[C@@H]1[C@@]24OO3 [Sulfamide 7] . Reported CLint scaled? 41.3

Ok, now C[C@H]1[C@@H](O)O[C@@H]2O[C@@]3(C)CC[C@H]4[C@H](C)CC[C@@H]1[C@@]24OO3 [DHA 2, dihydroartemisinin] 50.2

Thanks! And C[C@H]1[C@H](N2CCN(C(=O)Nc3ccc(F)cc3)CC2)O[C@@H]2O[C@@]3(C)CC[C@H]4[C@H](C)CC[C@@H]1[C@@]24OO3 ? 2480

Same for C[C@H]1[C@H](N2CCS(=O)(=O)CC2)O[C@@H]2O[C@@]3(C)CC[C@H]4[C@H](C)CC[C@@H]1[C@@]24OO3 805

###

Measured CLint scaled of individual entries
Test: Metabolic stability in pooled human liver microsomes
Design: dose or concentration left out as unconfirmed
Conditions: human, pooled liver microsomes

Example compounds with recorded CLint scaled:
compound="C[C@H]1[C@H](NS(N)(=O)=O)O[C@@H]2O[C@@]3(C)CC[C@H]4[C@H](C)CC[C@@H]1[C@@]24OO3 [Sulfamide 7]" result_type="CLint scaled" result="5.6 mL/min/kg"
compound="CO[C@H]1O[C@@H]2O[C@@]3(C)CC[C@H]4[C@H](C)CC[C@@H]([C@H]1C)[C@@]24OO3 [Artemether 3, artemether]" result_type="CLint scaled" result="172 mL/min/kg"

Look at this compound and give its reported CLint scaled. C[C@H]1[C@H](N2CCN(C(=O)Nc3ccc(F)cc3)CC2)O[C@@H]2O[C@@]3(C)CC[C@H]4[C@H](C)CC[C@@H]1[C@@]24OO3 [Arylurea 10] 531 mL/min/kg

###

Assay: Kinetic solubility
Type: physicochemical
Details: pH 2 solution (HCl in water), 22 °C, pH 2, kinetic from dmso stock; read-out: Solubility pH 2
result type: solubility at 2 h (µM)
Your answer is read as µM, so omit the unit and give the number.

The following compounds have reported results that may help.
compound="C[C@H]1[C@H](N2CCSCC2)O[C@@H]2O[C@@]3(C)CC[C@H]4[C@H](C)CC[C@@H]1[C@@]24OO3 [Artemiside 5, artemiside]" result_number=12.4
compound="C[C@H]1[C@H](N2CCS(=O)(=O)CC2)O[C@@H]2O[C@@]3(C)CC[C@H]4[C@H](C)CC[C@@H]1[C@@]24OO3 [Artemisone 6, artemisone]" result_number=73.7

So what does the record say about solubility at 2 h for C[C@H]1[C@H](N2CCN(C(=O)Nc3ccc(F)cc3)CC2)O[C@@H]2O[C@@]3(C)CC[C@H]4[C@H](C)CC[C@@H]1[C@@]24OO3 [Arylurea 10] ? 10

###

Experiment: Plasma protein binding (ultracentrifugation)
Type: in vitro ADME
Settings: pooled plasma, human plasma, read-out: Plasma protein binding fu
Description: (iii) Plasma protein binding. Plasma protein binding was measured using an ultracentrifugation method. The assay was performed using a 96-well microtiter plate with pooled human plasma spiked with the test compound (10 μM). […] This served as the total concentration sample. After preincubation at 37°C for 1 h, duplicate aliquots of the spiked plasma were transferred to ultracentrifugation tubes and ultracentrifuged for 4 h (216,937 × g, 37°C, Beckman Optima L-80XP). […] Sample extraction. […]
result type: fraction unbound at 4 h, 10 µM
Reply with just the number.

Return reported fraction unbound at 4 h, 10 µM; argument: C[C@@H]1CC[C@H]2[C@@H](C)C(=O)N[C@@H]3O[C@@]4(C)CC[C@@H]1[C@]32OO4 0.13

###

Test: Pharmacokinetics in mice, oral administration
Type: in vivo, male C57/BL6 mice
Settings: male, C57/BL6, mouse, plasma, po, 50 mg/kg, oral bioavailability, p.o. 50 mg/kg vs i.v. 10 mg/kg
Label FALSE if bioavailability falls below 20%; label TRUE in every other case.

compound="CO[C@H]1O[C@@H]2O[C@@]3(C)CC[C@H]4[C@H](C)CC[C@@H]([C@H]1C)[C@@]24OO3 [Artemether 3, artemether]" category_label=FALSE
compound="C[C@H]1[C@H](N2CCSCC2)O[C@@H]2O[C@@]3(C)CC[C@H]4[C@H](C)CC[C@@H]1[C@@]24OO3 [Artemiside 5, artemiside]" category_label=FALSE
compound="C[C@@H]1CC[C@H]2[C@@H](C)C(=O)N[C@@H]3O[C@@]4(C)CC[C@@H]1[C@]32OO4 [11-Aza-artemisinin 11, 11-aza-artemisinin]" category_label=FALSE

Is it the case that C[C@H]1[C@H](NS(N)(=O)=O)O[C@@H]2O[C@@]3(C)CC[C@H]4[C@H](C)CC[C@@H]1[C@@]24OO3 [Sulfamide 7] has bioavailability reaching or exceeding 20%? TRUE

Same thing, different compound: C[C@H]1[C@H](N2CCN(C(=O)Nc3ccc(F)cc3)CC2)O[C@@H]2O[C@@]3(C)CC[C@H]4[C@H](C)CC[C@@H]1[C@@]24OO3 [Arylurea 10] FALSE

Try this compound too: C[C@H]1[C@H](N2CCS(=O)(=O)CC2)O[C@@H]2O[C@@]3(C)CC[C@H]4[C@H](C)CC[C@@H]1[C@@]24OO3 [Artemisone 6, artemisone] TRUE

###

Assay: Kinetic solubility
Type: physicochemical
Settings: PBS, 22 °C, pH 7.4, aqueous buffer, kinetic from dmso stock; read-out: Solubility pH 7.4
result type: solubility at 2 h

molecule="C[C@H]1[C@H](N2CCSCC2)O[C@@H]2O[C@@]3(C)CC[C@H]4[C@H](C)CC[C@@H]1[C@@]24OO3 [Artemiside 5, artemiside]" result_type="solubility at 2 h" result="< 5 µM"
molecule="C[C@H]1[C@H](NS(N)(=O)=O)O[C@@H]2O[C@@]3(C)CC[C@H]4[C@H](C)CC[C@@H]1[C@@]24OO3 [Sulfamide 7]" result_type="solubility at 2 h" result="11.5 µM"
molecule="C[C@H]1[C@H](N2C=CS(=O)(=O)CC2)O[C@@H]2O[C@@]3(C)CC[C@H]4[C@H](C)CC[C@@H]1[C@@]24OO3 [M1 12]" result_type="solubility at 2 h" result="74.5 µM"
molecule="C[C@H]1[C@H](N2CCN(C(=O)Nc3ccc(F)cc3)CC2)O[C@@H]2O[C@@]3(C)CC[C@H]4[C@H](C)CC[C@@H]1[C@@]24OO3 [Arylurea 10]" result_type="solubility at 2 h" result="27 µM"
molecule="C[C@H]1[C@H](N2CCS(=O)(=O)CC2)O[C@@H]2O[C@@]3(C)CC[C@H]4[C@H](C)CC[C@@H]1[C@@]24OO3 [Artemisone 6, artemisone]" result_type="solubility at 2 h" result="120 µM"

Next item in the queue.
Name the reported solubility at 2 h value associated with the molecule C[C@@H]1CC[C@H]2[C@@H](C)C(=O)N[C@@H]3O[C@@]4(C)CC[C@@H]1[C@]32OO4 [11-Aza-artemisinin 11, 11-aza-artemisinin] 144 µM
